Reference source for all entries: paper PMC11079024

molecular target: B. taurus (heart) complex I (Bos taurus, UniProt P03887+P17694+P42026); experiment: biochemical; assay type: biochemical; conditions: B. taurus heart mitochondria; read-out: B. taurus Complex I IC50
Sequence (P03887 whole entry): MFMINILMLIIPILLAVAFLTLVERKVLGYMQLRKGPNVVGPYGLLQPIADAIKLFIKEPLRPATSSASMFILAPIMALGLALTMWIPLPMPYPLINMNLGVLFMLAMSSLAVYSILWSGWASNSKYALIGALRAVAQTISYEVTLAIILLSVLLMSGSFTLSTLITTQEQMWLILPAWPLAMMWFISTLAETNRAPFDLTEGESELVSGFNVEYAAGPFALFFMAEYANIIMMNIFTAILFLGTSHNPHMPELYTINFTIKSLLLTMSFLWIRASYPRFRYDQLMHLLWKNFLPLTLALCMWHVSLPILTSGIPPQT
Sequence (P17694 34-463): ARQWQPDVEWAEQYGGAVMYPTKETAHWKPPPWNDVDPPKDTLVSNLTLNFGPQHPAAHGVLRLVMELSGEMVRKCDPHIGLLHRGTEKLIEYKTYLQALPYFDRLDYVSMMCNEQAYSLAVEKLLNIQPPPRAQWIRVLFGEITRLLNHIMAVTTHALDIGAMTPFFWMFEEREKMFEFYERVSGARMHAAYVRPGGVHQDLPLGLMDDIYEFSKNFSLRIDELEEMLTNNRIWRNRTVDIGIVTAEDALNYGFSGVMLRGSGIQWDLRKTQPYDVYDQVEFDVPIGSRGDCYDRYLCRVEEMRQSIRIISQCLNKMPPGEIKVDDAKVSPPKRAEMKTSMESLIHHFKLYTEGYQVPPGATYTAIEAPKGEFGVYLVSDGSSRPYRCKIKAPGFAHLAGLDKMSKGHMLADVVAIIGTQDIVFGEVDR
Sequence (P42026 38-216): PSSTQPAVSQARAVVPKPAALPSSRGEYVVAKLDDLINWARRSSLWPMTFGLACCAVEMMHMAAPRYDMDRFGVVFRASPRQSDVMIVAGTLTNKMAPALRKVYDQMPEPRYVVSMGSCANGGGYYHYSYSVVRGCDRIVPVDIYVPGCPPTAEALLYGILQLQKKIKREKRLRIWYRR
A collection of molecules and their measured IC50
Provide only the numeric value, understood in µM.

# count of solved cases: 5
Clc1ccc(OCCn2cnc3ccccc32)c(Cl)c1 | 10.7
Clc1ccc(Cn2cnc3ccccc32)cc1Cl | 11.5
CCc1cc(OCCn2cnc3ccccc32)ccc1Cl | 5.7
CC(C)Cc1ccc(C(C)c2nc3ccccc3n2C)cc1 (stereo not drawn) | 27.2
Cn1c(Cc2ccc(Cl)cc2)nc2ccccc21 | 33.3

Inquiry: What does the data say about its IC50? Entry: `Nc1nc2ccccc2n1CCOc1ccc(Br)cc1`
Reply text: 12.7

Inquiry: Requested read-out: IC50. Entry: `Cc1ccc(Cn2c(C(C)C)nc3ccccc32)cc1`
Reply text: 57.6

Inquiry: Would you mind telling me what IC50 value was observed for `Cc1nc2ccccc2n1CCOc1ccccc1` ?
Reply text: 9.86

Inquiry: For the molecule shown here, `c1ccc(-c2noc(CCCCc3nc4ccccc4[nH]3)n2)cc1` , give the reported IC50.
Reply text: 18.5

Inquiry: Endpoint output: IC50 of `Nc1nc2ccccc2n1CCCOc1ccccc1` . Value?
Reply text: 15.6

Inquiry: Dear colleague, I am looking for the recorded IC50 of the following molecule: `Cc1nc2ccccc2n1Cc1ccc(C(C)(C)C)cc1`
Reply text: 1.18

Inquiry: Return reported IC50; argument: `Cc1nc2ccccc2n1CCOc1ccccc1Cl`
Reply text: 8.05

Inquiry: Which IC50 value is on record for `CC(C)Oc1cccc(OCCn2cnc3ccccc32)c1` ?
Reply text: 2.19

Inquiry: Data request, read-out IC50, for CC(C)Cc1ccc(C(C)c2nc3ccccc3n2C(C)C)cc1 (stereo not drawn)
Reply text: 14.7

Inquiry: # query: IC50 of entry `Cc1ccc(OCCn2cnc3ccccc32)cc1`
Reply text: 17.4
